- Tested on: ChaGo-K-1
- protocolDescription: relative viability (nuclei count vs DMSO), 5 days (fraction); higher = more cells survive
- reportedConditions: first compound 0.5 µM
measureName: relative viability
// print number alone

compound: CC1(C)CCC(c2ccc(Cl)cc2)=C(CN2CCN(c3ccc(C(=O)NS(=O)(=O)c4ccc(N[C@H](CCN5CCOCC5)CSc5ccccc5)c(S(=O)(=O)C(F)(F)F)c4)cc3)CC2)C1 [Navitoclax] + Nc1ncn([C@H]2C[C@H](O)[C@@H](CO)O2)c(=O)n1 [Decitabine] (partner 2 µM)
reported: 0.52

Item CC1(C)CCC(c2ccc(Cl)cc2)=C(CN2CCN(c3ccc(C(=O)NS(=O)(=O)c4ccc(N[C@H](CCN5CCOCC5)CSc5ccccc5)c(S(=O)(=O)C(F)(F)F)c4)cc3)CC2)C1 [Navitoclax] + N=C(N)NC(=N)NCCc1ccccc1 [Phenformin] (partner 250 µM) has what recorded relative viability?
0.501

Item CC1(C)CCC(c2ccc(Cl)cc2)=C(CN2CCN(c3ccc(C(=O)NS(=O)(=O)c4ccc(N[C@H](CCN5CCOCC5)CSc5ccccc5)c(S(=O)(=O)C(F)(F)F)c4)cc3)CC2)C1 [Navitoclax] + Cc1cc(Nc2cc(N3CCN(C)CC3)nc(Sc3ccc(NC(=O)C4CC4)cc3)n2)n[nH]1 [Tozasertib] (partner 0.1 µM) has what recorded relative viability?
0.216

Item CC1(C)CCC(c2ccc(Cl)cc2)=C(CN2CCN(c3ccc(C(=O)NS(=O)(=O)c4ccc(N[C@H](CCN5CCOCC5)CSc5ccccc5)c(S(=O)(=O)C(F)(F)F)c4)cc3)CC2)C1 [Navitoclax] + CCNC(=O)c1noc(-c2cc(C(C)C)c(O)cc2O)c1-c1ccc(CN2CCOCC2)cc1 [Luminespib] (partner 0.01 µM) has what recorded relative viability?
0.636

Item CC1(C)CCC(c2ccc(Cl)cc2)=C(CN2CCN(c3ccc(C(=O)NS(=O)(=O)c4ccc(N[C@H](CCN5CCOCC5)CSc5ccccc5)c(S(=O)(=O)C(F)(F)F)c4)cc3)CC2)C1 [Navitoclax] + CS(=O)(=O)N1CCN(Cc2cc3nc(-c4cccc5[nH]ncc45)nc(N4CCOCC4)c3s2)CC1 [Pictilisib] (partner 1 µM) has what recorded relative viability?
0.667

Item CC1(C)CCC(c2ccc(Cl)cc2)=C(CN2CCN(c3ccc(C(=O)NS(=O)(=O)c4ccc(N[C@H](CCN5CCOCC5)CSc5ccccc5)c(S(=O)(=O)C(F)(F)F)c4)cc3)CC2)C1 [Navitoclax] + Nc1nc2[nH]cc(CCc3ccc(C(=O)N[C@@H](CCC(=O)O)C(=O)O)cc3)c2c(=O)[nH]1 [Pemetrexed] (partner 0.2 µM) has what recorded relative viability?
0.265

Item CC1(C)CCC(c2ccc(Cl)cc2)=C(CN2CCN(c3ccc(C(=O)NS(=O)(=O)c4ccc(N[C@H](CCN5CCOCC5)CSc5ccccc5)c(S(=O)(=O)C(F)(F)F)c4)cc3)CC2)C1 [Navitoclax] + C[C@@H](Oc1cc(-c2cnn(C3CCNCC3)c2)cnc1N)c1c(Cl)ccc(F)c1Cl [Crizotinib] (partner 1 µM) has what recorded relative viability?
1.19

###

- Test system: SW 900
- protocolDescription: relative viability (nuclei count vs DMSO), 5 days (fraction); higher = more cells survive
- reportedConditions: first compound 1.265 µM
measureName: relative viability
// print number alone

Check out these entries, answers already filled in.
molecule: O=C(O)c1ccc(-c2c[nH]c3ncc(-c4ccccc4)cc23)cc1C1CCCC1 + O=C(c1cc(Cc2n[nH]c(=O)c3ccccc23)ccc1F)N1CCN(C(=O)C2CC2)CC1 [Olaparib] (partner 8 µM)
measureName: relative viability
reported: 0.475
--
molecule: O=C(O)c1ccc(-c2c[nH]c3ncc(-c4ccccc4)cc23)cc1C1CCCC1 + Cc1nc(Nc2ncc(C(=O)Nc3c(C)cccc3Cl)s2)cc(N2CCN(CCO)CC2)n1 [Dasatinib] (partner 0.075 µM)
measureName: relative viability
reported: 0.52
--
molecule: O=C(O)c1ccc(-c2c[nH]c3ncc(-c4ccccc4)cc23)cc1C1CCCC1 + CCNC(=O)c1noc(-c2cc(C(C)C)c(O)cc2O)c1-c1ccc(CN2CCOCC2)cc1 [Luminespib] (partner 0.01 µM)
measureName: relative viability
reported: 0.156

// moving on: another record for relative viability
Item O=C(O)c1ccc(-c2c[nH]c3ncc(-c4ccccc4)cc23)cc1C1CCCC1 + Cc1cc(Nc2cc(N3CCN(C)CC3)nc(Sc3ccc(NC(=O)C4CC4)cc3)n2)n[nH]1 [Tozasertib] (partner 0.1 µM) has what recorded relative viability?
0.311
